targetOrSystem: Env of the clade A HIV-1 pseudoviruses of the cross-clade 162-pseudovirus panel (n = 26)
experimentalProtocol: cell-based or functional assay
recordedEndpoint: log10(Median IC50 against viruses neutralized with an IC50 <50 µg/ml) (log10 of the value in µg/mL)
Hi team, quick reminder: these entries are log10 of Median IC50 against viruses neutralized with an IC50 <50 µg/ml (µg/mL).

These solved cases illustrate the format of a correct answer.
| binder | reportedMeasurement |
| --- | --- |
| PGT-136 (antibody, V domains shown) VH: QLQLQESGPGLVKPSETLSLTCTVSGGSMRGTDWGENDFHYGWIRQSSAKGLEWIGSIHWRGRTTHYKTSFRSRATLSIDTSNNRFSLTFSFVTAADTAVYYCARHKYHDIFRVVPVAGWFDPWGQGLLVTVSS VL: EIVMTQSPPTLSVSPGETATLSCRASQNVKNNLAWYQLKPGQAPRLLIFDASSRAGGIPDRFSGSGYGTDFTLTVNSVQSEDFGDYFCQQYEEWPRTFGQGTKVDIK | 0.37 |
| PGT-125 (antibody, V domains shown) VH: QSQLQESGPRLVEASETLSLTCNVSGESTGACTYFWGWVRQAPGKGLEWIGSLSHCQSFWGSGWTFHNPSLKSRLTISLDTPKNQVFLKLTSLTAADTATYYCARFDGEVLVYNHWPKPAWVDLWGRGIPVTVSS VL: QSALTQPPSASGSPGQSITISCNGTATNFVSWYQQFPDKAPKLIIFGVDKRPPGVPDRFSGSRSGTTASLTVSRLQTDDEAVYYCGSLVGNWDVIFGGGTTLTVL | -2.00 |
| PGT-130 (antibody, V domains shown) VH: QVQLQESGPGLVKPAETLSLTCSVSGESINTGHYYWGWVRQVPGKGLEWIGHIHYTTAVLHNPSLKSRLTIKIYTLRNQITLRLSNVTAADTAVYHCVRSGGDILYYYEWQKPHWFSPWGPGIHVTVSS VL: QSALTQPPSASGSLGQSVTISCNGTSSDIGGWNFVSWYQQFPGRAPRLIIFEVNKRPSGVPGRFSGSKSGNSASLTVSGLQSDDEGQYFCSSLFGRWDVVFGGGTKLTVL | -1.05 |
| PGT-126 (antibody, V domains shown) VH: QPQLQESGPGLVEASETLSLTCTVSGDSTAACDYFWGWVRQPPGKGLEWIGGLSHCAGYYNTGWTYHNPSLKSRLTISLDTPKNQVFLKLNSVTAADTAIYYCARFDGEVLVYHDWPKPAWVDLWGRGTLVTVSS VL: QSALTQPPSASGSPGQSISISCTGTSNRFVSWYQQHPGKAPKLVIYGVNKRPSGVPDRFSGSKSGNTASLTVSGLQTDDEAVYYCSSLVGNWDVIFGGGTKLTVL | -2.00 |
| PGT-137 (antibody, V domains shown) VH: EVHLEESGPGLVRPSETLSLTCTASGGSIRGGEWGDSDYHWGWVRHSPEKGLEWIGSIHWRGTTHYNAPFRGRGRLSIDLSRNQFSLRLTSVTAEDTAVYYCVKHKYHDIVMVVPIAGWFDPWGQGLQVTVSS VL: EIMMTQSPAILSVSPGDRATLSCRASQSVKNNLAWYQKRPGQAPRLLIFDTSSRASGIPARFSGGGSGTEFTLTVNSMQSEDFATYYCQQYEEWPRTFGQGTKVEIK | -0.14 |
| PGT-128 (antibody, V domains shown) VH: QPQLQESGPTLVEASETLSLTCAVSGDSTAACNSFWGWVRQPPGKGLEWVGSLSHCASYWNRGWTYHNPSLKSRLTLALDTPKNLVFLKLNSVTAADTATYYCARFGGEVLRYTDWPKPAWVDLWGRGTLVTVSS VL: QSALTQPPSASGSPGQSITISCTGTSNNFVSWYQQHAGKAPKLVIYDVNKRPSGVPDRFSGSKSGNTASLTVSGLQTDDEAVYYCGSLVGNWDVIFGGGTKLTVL | -2.00 |
| PGT-123 (antibody, V domains shown) VH: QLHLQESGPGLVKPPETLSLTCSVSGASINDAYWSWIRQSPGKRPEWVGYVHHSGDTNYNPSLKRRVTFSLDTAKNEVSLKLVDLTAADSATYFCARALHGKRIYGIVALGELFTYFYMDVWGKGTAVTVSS VL: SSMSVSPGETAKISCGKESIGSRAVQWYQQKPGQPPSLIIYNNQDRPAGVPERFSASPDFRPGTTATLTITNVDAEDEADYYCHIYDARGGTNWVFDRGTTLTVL | -1.70 |
| PGT-127 (antibody, V domains shown) VH: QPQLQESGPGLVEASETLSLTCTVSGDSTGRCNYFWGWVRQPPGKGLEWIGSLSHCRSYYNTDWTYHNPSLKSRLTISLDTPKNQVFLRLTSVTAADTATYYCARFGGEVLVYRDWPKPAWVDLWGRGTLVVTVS VL: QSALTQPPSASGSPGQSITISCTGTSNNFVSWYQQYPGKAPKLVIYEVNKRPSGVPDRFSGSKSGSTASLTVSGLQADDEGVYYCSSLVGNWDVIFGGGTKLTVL | -1.70 |
| PGT-131 (antibody, V domains shown) VH: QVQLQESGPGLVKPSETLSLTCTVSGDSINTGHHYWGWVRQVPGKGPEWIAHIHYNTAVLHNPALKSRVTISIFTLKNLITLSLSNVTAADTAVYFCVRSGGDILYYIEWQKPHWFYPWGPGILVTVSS VL: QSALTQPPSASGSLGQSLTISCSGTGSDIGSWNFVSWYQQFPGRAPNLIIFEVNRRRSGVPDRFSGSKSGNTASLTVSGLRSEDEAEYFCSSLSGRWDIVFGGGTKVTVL | -1.05 |

Next:
What does the data say about its log10(Median IC50 against viruses neutralized with an IC50 <50 µg/ml)? Entry: PGT-135 (antibody, V domains shown) VH: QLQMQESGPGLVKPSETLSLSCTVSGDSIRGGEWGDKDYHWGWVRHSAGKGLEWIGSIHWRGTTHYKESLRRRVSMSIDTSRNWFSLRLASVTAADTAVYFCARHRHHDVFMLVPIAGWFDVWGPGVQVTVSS VL: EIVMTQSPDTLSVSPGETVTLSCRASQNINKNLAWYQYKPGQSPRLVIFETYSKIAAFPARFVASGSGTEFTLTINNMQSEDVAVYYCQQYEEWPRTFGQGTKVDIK
-0.19
